Source of measurements: ChEMBL document CHEMBL1201862

Field: IC50. Provide a value for each of the molecules that follow.
Molecular target: Sentrin-specific protease 7 (Homo sapiens);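 also: Luminescence-based dose-response confirmation of ultra-high-throughput screening hits, measuring inhibition of SENP7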
Sequence (Q9BQF6 whole entry): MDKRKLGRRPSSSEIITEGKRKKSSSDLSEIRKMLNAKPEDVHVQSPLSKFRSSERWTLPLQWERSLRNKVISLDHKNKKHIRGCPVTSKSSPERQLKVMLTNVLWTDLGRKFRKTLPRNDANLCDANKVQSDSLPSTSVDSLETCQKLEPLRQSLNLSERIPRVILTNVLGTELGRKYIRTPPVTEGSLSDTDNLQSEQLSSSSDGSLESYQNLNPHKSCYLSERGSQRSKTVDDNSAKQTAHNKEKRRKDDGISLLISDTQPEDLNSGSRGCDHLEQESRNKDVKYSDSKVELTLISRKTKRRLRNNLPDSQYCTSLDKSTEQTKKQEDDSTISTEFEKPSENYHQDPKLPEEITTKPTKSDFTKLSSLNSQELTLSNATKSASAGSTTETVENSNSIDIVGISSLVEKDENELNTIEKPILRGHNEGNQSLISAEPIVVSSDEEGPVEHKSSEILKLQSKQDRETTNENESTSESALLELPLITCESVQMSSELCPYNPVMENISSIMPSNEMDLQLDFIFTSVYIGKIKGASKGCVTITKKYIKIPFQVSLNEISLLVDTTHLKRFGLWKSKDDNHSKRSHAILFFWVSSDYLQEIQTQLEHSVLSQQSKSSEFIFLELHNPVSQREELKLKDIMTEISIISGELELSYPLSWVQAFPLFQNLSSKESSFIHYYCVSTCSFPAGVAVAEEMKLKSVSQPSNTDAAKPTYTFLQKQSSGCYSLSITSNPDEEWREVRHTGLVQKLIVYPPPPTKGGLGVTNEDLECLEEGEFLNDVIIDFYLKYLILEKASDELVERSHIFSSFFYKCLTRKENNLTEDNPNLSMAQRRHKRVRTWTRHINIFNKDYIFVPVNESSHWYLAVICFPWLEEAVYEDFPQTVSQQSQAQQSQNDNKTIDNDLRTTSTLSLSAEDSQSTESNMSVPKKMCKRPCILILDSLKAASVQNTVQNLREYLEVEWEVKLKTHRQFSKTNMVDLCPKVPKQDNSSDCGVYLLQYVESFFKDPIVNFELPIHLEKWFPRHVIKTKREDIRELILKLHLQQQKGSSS
Type: functional
Active and inactive are the calls of the source.

Value of measured IC50 for the entry Cc1ccc(S(=O)(=O)/N=C2\C=C(Nc3cccc(C(=O)O)c3)C(=O)c3ccccc32)c(C)c1 : 3.3 µM (active)

Value of measured IC50 for the entry Cc1c(C(=O)O)cccc1-c1ccc(/C=C2/NC(=O)N(c3ccccc3)C2=O)o1 : 21.2 µM (active)

Value of measured IC50 for the entry O=C(O)c1ccc(-c2ccc(OS(=O)(=O)c3ccccc3F)cc2)cc1 : 6.6 µM (active)

Value of measured IC50 for the entry Nc1ccc(N2CCCCC2)c2nonc12 : 17.1 µM (active)

====

Field: IC50. Provide a value for each of the molecules that follow.
Target: Rac GTPase-activating protein 1 (Homo sapiens, UniProt Q9H0H5)
Sequence (Q9H0H5 whole entry): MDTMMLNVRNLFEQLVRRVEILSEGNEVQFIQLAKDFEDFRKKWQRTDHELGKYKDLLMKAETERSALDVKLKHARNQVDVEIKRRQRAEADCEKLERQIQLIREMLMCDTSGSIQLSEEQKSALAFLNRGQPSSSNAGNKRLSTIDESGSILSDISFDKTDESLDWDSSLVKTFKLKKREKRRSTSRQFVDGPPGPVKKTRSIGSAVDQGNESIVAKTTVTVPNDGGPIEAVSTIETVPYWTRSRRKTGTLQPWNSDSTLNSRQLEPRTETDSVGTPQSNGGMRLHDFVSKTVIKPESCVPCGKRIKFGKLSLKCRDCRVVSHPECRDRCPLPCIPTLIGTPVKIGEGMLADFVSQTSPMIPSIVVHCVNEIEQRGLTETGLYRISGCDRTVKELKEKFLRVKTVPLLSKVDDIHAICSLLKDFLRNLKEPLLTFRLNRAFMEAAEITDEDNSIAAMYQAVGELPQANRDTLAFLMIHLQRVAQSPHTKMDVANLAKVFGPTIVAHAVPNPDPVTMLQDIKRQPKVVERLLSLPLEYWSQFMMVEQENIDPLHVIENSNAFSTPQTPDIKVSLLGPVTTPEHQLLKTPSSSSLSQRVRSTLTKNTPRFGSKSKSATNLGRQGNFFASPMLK
Assay: MgcRacGAP GTPase-activating activity inhibitors, confirmation, biochemical, ADP Hunter fluorescence, primary and confirmatory (AID 624330)
Format: functional
Activity calls are given as the source filed them.

Value of measured IC50 for the entry COc1ccc(OC(=O)COc2ccc(C)cc2)cc1 : 30 µM (active)

Value of measured IC50 for the entry CC(Oc1ccc(Cl)cc1Cl)C(=O)Nc1ccc(O)cc1 (stereo not given) : 38.4 µM (active)

Value of measured IC50 for the entry O=C1CS/C(=N\c2ccc(O)cc2)N1c1ccc(O)cc1 : 51.9 µM (active)

Value of measured IC50 for the entry COc1ccc2[nH]c3c(C)c4ccncc4c(C)c3c2c1 : 28.8 µM (active)

Value of measured IC50 for the entry Nc1c(Cl)cc(NC(=O)c2ccccc2C(=O)O)cc1Br : 169 µM (active)

Value of measured IC50 for the entry COc1cc(C)c(NC(c2ccccc2)c2ccccc2)cc1OC : 113 µM (active)

Value of measured IC50 for the entry COc1ccc(NC(=O)/C(Cl)=C(/Cl)[S+]([O-])Cc2ccccc2)cn1 (stereo not given) : 36.5 µM (active)

Value of measured IC50 for the entry Cc1ccc(-n2[nH]c(=O)c3cccnc32)cc1 : 95.2 µM (active)

Value of measured IC50 for the entry COc1cc(/C=C2\SC(=N)NC2=O)ccc1O : 11.8 µM (active)

Value of measured IC50 for the entry C=CC/N=c1\scc(C)n1/N=C/c1ccc(O)c(O)c1 : 17.4 µM (active)
